src = ChEMBL document CHEMBL3779764

# System: Enterovirus A71
# protocol-details: Antiviral activity against Human enterovirus 71 infected in monkey African green Vero cells by MTS-based CPE reduction assay
# Assay type: functional, organism-based
# assay-context: Enterovirus A, Vero; read-out: EC50
metric-name: pEC50
The read-out pEC50 is expressed as -log10 of concentration in moles per litre.

test-smiles	observed-result
COc1ccc(C(=O)NNc2c(C)cccc2C)cc1	4.91
CCCc1ccc(C(=O)NNc2c(Br)cccc2Br)cc1	5.45
COc1ccc(C(=O)NNc2c(Br)cccc2Br)cc1	5.48

Please find the next molecule below.
Request the reported pEC50 associated with "CC(C)(C)c1ccc(C(=O)NNc2c(Br)cccc2Br)cc1" 7.10
